# credit: patent US20240254138A1

target: CDK7/cyclinH/MAT1 trimeric complex (Homo sapiens, UniProt P50613); experiment: In vitro CDK7 assay, potency of irreversible covalent inhibitors (kinact/KI), coupled PK/LDH ADP readout at 340 nm; settings: read-out: CDK7 (20 nM enz.) (kinact/KI, M^−1*s^−1), 20 nM enzyme
Sequence (P50613 whole entry): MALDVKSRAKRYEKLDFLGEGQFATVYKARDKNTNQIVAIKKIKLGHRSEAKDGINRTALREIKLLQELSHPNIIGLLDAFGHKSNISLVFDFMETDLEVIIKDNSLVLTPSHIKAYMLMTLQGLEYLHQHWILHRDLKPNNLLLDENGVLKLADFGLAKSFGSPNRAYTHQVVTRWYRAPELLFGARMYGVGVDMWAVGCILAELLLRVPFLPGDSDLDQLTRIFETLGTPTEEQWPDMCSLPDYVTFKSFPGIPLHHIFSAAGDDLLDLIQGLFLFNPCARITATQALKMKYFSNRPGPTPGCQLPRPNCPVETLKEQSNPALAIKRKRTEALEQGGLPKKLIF
Sequence (P51946 whole entry partner): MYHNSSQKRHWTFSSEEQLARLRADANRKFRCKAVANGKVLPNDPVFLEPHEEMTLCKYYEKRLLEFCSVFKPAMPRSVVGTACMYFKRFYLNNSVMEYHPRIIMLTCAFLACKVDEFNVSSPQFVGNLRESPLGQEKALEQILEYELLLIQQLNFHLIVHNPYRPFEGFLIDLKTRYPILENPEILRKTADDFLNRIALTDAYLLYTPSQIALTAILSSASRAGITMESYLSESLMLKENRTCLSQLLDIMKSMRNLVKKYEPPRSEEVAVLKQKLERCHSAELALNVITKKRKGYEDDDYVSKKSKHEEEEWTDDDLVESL
Sequence (P51948 whole entry partner): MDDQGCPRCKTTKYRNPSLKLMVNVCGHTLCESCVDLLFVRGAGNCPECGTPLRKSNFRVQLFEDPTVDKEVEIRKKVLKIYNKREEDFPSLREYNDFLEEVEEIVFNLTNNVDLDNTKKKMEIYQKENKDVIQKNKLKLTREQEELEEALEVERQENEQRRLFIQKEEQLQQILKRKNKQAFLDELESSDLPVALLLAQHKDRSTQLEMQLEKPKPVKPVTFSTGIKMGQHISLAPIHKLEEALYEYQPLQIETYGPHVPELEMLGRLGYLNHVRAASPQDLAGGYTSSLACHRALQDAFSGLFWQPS
Readout: kinact/KI (M⁻¹ s⁻¹)

Below, each entry is followed by its recorded kinact/KI result.
{"columns": ["Compound", "Readout", "Reported result"],
 "data": [
  ["C=CC(=O)N1CC[C@@H](N2CC(c3cc(C)c4c(c3)Nc3nccc(N5CCOCC5)c3CO4)C2)C1 (single isomer, unassigned) [Compound 149]", "kinact/KI", 1230],
  ["CC#CC(=O)N1CC(c2nc(C)c(-c3cc4c(c(C)n3)OCc3c(N5CCOCC5)ccnc3N4)c(C)n2)C1", "kinact/KI", 139],
  ["C=CC(=O)N1CC[C@@H](N2CC(c3cc(C)c4c(c3)Nc3nccc(-c5cnn(C)c5)c3CO4)C2)C1 (single isomer, unassigned) [Compound 194]", "kinact/KI", 530]
]}

(A) C=CC(=O)N1CCC(N2CCC(c3ccc4c(c3)Nc3nccc(N5CCS(=O)(=NC)CC5)c3CO4)CC2)CC1
(B) CC#CC(=O)N1CCC(N2CCN(c3cc4c(c(C)n3)OCc3c(N5CCOCC5)ccnc3N4)CC2)CC1
(C) CC#CC(=O)N1CC(N2CCC(c3cc4c(c(-c5ncc[nH]5)n3)OCc3c(N5CCOCC5)ccnc3N4)CC2)C1
Asked: Reorder: kinact/KI, max to min. Returns: the labels listed in the requested order.
Given back: C, B, A
(C: 1390 M⁻¹ s⁻¹, B: 457 M⁻¹ s⁻¹, A: 101 M⁻¹ s⁻¹)

====

target: CDK7/cyclinH/MAT1 trimeric complex (Homo sapiens); test: In vitro CDK7 assay, potency of irreversible covalent inhibitors (kinact/KI), coupled PK/LDH ADP readout at 340 nm; conditions: CDK7 (20 nM enz.) (KI, μM), 20 nM enzyme
Readout: Ki (µM)

{"columns": ["Compound", "Ki / µM"],
 "data": [
  ["C=CC(=O)N=S1(=O)CCN(c2ccnc3c2COc2ccc(C4CCN(C5CN(C(=O)C=C)C5)CC4)cc2N3)CC1", 3.37],
  ["C=CC(=O)N1CC[C@H](N2CC(c3cc4c(c(C)n3)OCc3c(N5CCOCC5)ccnc3N4)C2)[C@H](F)C1", 0.337],
  ["CC#CC(=O)N1CCC(n2ccc(-c3cc4c(c(C)n3)OCc3c(N5CCOCC5)ccnc3N4)cc2=O)CC1", 0.0611],
  ["C=CC(=O)N1CC(N2CC(c3ccc4c(c3)Nc3nccc(-c5cnn(C)c5)c3CO4)C2)C1", 0.0372],
  ["C=CC(=O)N1CC[C@@H](N2CC(c3cc4c(c(C5CC5)n3)OCc3c(N5CCOCC5)ccnc3N4)C2)C1 (single isomer, unassigned) [Compound 323]", 0.0217]
]}

(A) CC#CC(=O)N1CC[C@@H](N2CC(c3cc4c(c(C5CC5)n3)O[C@H](C)c3c(N5CCOCC5)ccnc3N4)C2)C1 (single isomer, unassigned)
(B) C=CC(=O)N1CC(N2CCC(c3ccc4c(c3)Nc3nccc(C5CCOCC5)c3[C@@H](C)O4)CC2)C1 (single isomer, unassigned)
Asked: Compare reported Ki values for A and B . Which is lower? To answer, give the label that identifies your chosen option.
Given back: B

(P) C=CC(=O)N1CC(N2CCC(c3cc4c(c(C)n3)OCc3c(C5CCOCC5)ccnc3N4)CC2)C1
(Q) C=CC(=O)N1CC(N2CC(c3cc4c(c(C)n3)O[C@H](C)c3c(N5CCOCC5)ccnc3N4)C2)C1 (single isomer, unassigned) [Compound 270]
Asked: P or Q : whose Ki is greater? To answer, give the label that identifies your chosen option.
Given back: P
(P: 0.168 µM, Q: 0.0518 µM)

(a) C=CC(=O)N1CC(N2CCC(c3ccc4c(c3)Nc3nccc(N5CCOC6(CC6)C5)c3CO4)CC2)C1
(b) CC#CC(=O)N1CCC(n2cc(-c3cc4c(c(C)n3)OCc3c(N5CCOCC5)ccnc3N4)cn2)CC1
Asked: a or b : whose Ki is greater? To answer, give the label that identifies your chosen option.
Given back: b

(A) C=CC(=O)N1CC[C@@H](N2CC(c3cc4c(c(C5CC5)n3)O[C@@H](C)c3c(N5CCOCC5)ccnc3N4)C2)C1 (single isomer, unassigned)
(B) C=CC(=O)N1CCC(N2CC(c3cc4c(c(C5CC5)n3)OCc3c(N5CCOCC5)ccnc3N4)C2)CC1 [Compound 341]
Asked: A or B : whose Ki is greater? To answer, give the label that identifies your chosen option.
Given back: B
